Cited source: paper PMC2837848

# Target or test system: QAPRTase (Salmonella typhimurium quinolinic acid phosphoribosyltransferase) (Salmonella enterica, UniProt P30012, R153A)
# Experimental protocol: biochemical
Reported property: Kd

- Compound: "O=P(O)(O)OC[C@H]1O[C@H](OP(=O)(O)OP(=O)(O)O)[C@H](O)[C@@H]1O [PRPP, 5-phosphoribosyl 1-pyrophosphate]"
  Reported property: "Kd"
  Experimental result: "~1 mM"
